molecular target: UniProt:P46663; experiment: Calcium flux assay for Bradykinin B1 antagonist, CHO-K1 cell line expressing human B1; settings: CHO-K1 cells expressing human B1, agonist Lys-(Des-Arg)-Bradykinin, read-out: Potency (IC50 value against human B1)
Sequence (P46663 whole entry): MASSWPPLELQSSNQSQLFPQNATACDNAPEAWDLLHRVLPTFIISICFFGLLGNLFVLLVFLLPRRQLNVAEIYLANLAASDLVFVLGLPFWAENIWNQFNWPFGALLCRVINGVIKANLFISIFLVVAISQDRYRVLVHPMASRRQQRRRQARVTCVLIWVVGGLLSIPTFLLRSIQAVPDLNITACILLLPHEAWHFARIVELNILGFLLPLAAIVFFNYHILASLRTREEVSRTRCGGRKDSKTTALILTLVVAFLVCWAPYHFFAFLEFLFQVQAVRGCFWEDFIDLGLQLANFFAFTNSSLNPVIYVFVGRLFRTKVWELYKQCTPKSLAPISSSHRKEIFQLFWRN
Structures can show the parent of a compound that is named as a salt.
Endpoint label: IC50

Some solved cases for reference:
compound="COc1cc(C)c(S(=O)(=O)N(Cc2nc(C(=O)N3CCC(OC4CCCN(C)C4)CC3)co2)C2CC2)c(C)c1 (stereo not shown) [Ex 248, trifluoroacetate]" target_of_assay=UniProt:P46663 reading="10 to 100 nM"
compound=COc1cc(C)c(S(=O)(=O)N(C)Cc2nnc(C(=O)N3CCN(Cc4ccnc(C)c4)CC3)o2)c(C)c1 target_of_assay=UniProt:P46663 reading="10 to 100 nM"
compound=COc1cc(C)c(S(=O)(=O)N(Cc2cc(C(=O)NCCc3ccc(C4=NCCN4)cc3)co2)C2CC2)c(C)c1 target_of_assay=UniProt:P46663 reading="< 10 nM"

Given the compound `COc1cc(C)c(S(=O)(=O)N(Cc2nc(C(=O)N(C)Cc3ccc(CN4CC(OC)C4)cc3)co2)C2CC2)c(C)c1` , write its reported IC50.
< 10 nM
